# Measurement protocol: Primary qHTS for delayed death inhibitors of the malarial parasite plastid, 96 hour incubation
# Test context: P. falciparum luciferase reporter growth; series mostly up to 28.7 µM
The campaign covered roughly 320,000 compounds. About 22,000 (6.9%) were called active. Roughly 27% stayed inconclusive and do not appear here. Calls follow the shape of the dose curve; as a rule, active = well fitted inhibition curve with a large enough effect; inconclusive = small, poorly fitted or top-dose-only effect, or another doubt; inactive = no such curve, though single readings can be large or run the other way. The sample holds actives, similar compounds and a random draw of the others, so the mix is not that of the screen.
Just give me one of these, please: YES for active, NO for inactive

Which outcome was assigned to CS(=O)(=O)N1CCc2nc(-c3ccccc3)sc2C1 in this test?
NO

Please share the test call associated with O=C(O)C(c1ccccc1)C1(O)CCCCC1 (stereo unspecified) .
NO

Just curious, what result did O=C(O)CSc1ccc(S(=O)(=O)N2CCCC2)cn1 get here?
NO

I'd appreciate the recorded outcome for CC(C)C(=O)NCC(c1cccs1)S(=O)(=O)c1ccc(F)cc1 (stereo unspecified) from this test.
NO

Kindly provide the recorded test outcome for the following compound: CCOC(=O)c1ccc(NC(=O)c2nc[nH]c2C(=O)N[C@@H](CCCCNC(=O)OC(C)(C)C)C(=O)OC(C)(C)C)cc1
YES

Hi, sorry to bother you, what did the test record for O=C(CCc1ccccc1)Nc1cccc(-c2nnc(-c3ccco3)o2)c1 ?
NO

Any idea what this test logged for COc1ccccc1C(=O)Nc1ccnn1C1CCN(C(=O)C(C)(C)C)CC1 ?
NO

Which outcome was assigned to COCCCNC(=S)N1CCN(c2nc(-c3cccc(OC)c3)cs2)CC1 in this test?
NO

What was the test verdict on CCCCOc1ccc(-c2nnc(-c3ccco3)o2)cc1 ?
NO

Tell me the recorded outcome of this test for COc1ccc(S(=O)(=O)Nc2cc(C)on2)cc1NC(C)=O .
NO

Any idea what this test logged for CC1CCN(C(=O)c2ccccc2NC(=O)Cc2ccccc2)CC1 ?
NO

Which result was noted for this compound in the test: O=C(Cc1ccccc1)N1N=C(c2ccncc2)CC1(O)C(F)(F)F (stereo unspecified)
YES

How did this test come out for CCCn1c(C(O)c2ccc(OCC)cc2)nc2ccccc21 (stereo unspecified) ?
NO

Hey, what did the test say about CCC(=O)Oc1cccc(C(=O)Nc2ccc(-c3nnc(-c4ccco4)o3)cc2)c1 ?
YES

Recorded test outcome, item O=C(OC(C(=O)NC1CCCC1)c1ccc(F)cc1)c1ccno1 (stereo unspecified)
NO

Per the records of this test, what outcome belongs to CCOC(=O)CNc1nc2ccccc2n2c(C)nnc12 ?
NO

Dear all, I need the recorded test outcome for CC(=O)Nc1ccc(C(=O)C(Cc2ccccc2)N(C)C)cc1 (stereo unspecified) , thank you.
NO

Please indicate how the test categorized O=C(CSc1nnc(SCc2ccc(F)cc2)s1)Nc1ccc(C(=O)O)cc1 .
NO

Please indicate how the test categorized COc1ccc(CNc2nnnn2C)cc1 .
NO

Lab log entry: COc1ccccc1C(=O)N(Cc1ccc(C)o1)C1CCS(=O)(=O)C1 (stereo unspecified) — outcome as called in the assay?
NO

Any idea what this test logged for CC1=NN(C(=O)CCc2ccccc2O)C(O)(C(F)(F)F)C1 (stereo unspecified) ?
NO

Test call for this compound, please: CCOC(=O)c1ccc(NC(=O)c2nc[nH]c2C(=O)NCc2ccccc2)cc1
NO

For Cc1ccc(NC(=O)c2nc[nH]c2C(=O)N[C@@H](CCCCNC(=O)OC(C)(C)C)C(=O)OC(C)(C)C)cc1 , what call appears in the results of this test?
YES

For CCOc1ccc(NC(=O)COC(=O)C2CCC(=O)N2)c([N+](=O)[O-])c1 (stereo unspecified) , which call appears in the assay record?
NO

For Brc1ccccc1C1Nc2cccc3cccc(c23)N1 , what call appears in the results of this test?
NO

Could you check what this test reported for CC1CC1C(=O)OCC(=O)Nc1cccc(F)c1 (stereo unspecified) ?
NO

Outcome logged for CC1=NN(C(=O)CCCc2ccccc2)C(O)(C(F)(F)F)C1 (stereo unspecified) in this assay:
NO

Query: recorded result category for O=C(CC1SC(N2CCCC2)=NC1=O)Nc1ccc(C(=O)NCCc2ccc(F)cc2)cc1 (stereo unspecified) in this test
YES

What call does the record list for CN=c1scc(-c2cc(OC)ccc2OC)n1/N=C/c1c(C)[nH]c2ccccc12 ?
YES

Which outcome was assigned to CCc1cccc(CC)c1NC(=S)NCc1ccc2[nH]c(C)cc2c1 in this test?
YES

Returns: the outcome recorded for CC(C)OC(=O)c1sc2nc3c(cc2c1N)C(=O)CCC3 in this assay.
YES

Entry Cc1cc2oc(=O)cc(CN(C)Cc3ccc(OC(F)F)cc3)c2cc1Cl : call = ?
YES

Which outcome was entered for the compound COc1ccc2[nH]c3ccc(OC)cc3c2c1 in this test?
NO

Hi, do you know how CNC(=O)c1[nH]cnc1C(=O)N[C@@H](CC(C)C)C(=O)OC(C)(C)C came out in this test?
NO

What was the test verdict on CCc1nn(CCCC(=O)Nc2ccc(C)cc2C)c(=O)c2cc3occc3n12 ?
NO

// param item: Cc1ccc(CN(C)Cc2cc(=O)oc3cc(C)c(Cl)cc23)cc1 ; yields the recorded call
NO

Could you kindly confirm the outcome this assay logged for CC(NC(=O)CN(C)S(=O)(=O)c1ccc(F)cc1)C1CC2CCC1C2 (stereo unspecified) ?
NO

Hey, what did the test say about CCOc1ccc(N(C)Cc2cc(=O)oc3ccc(OC)cc23)cc1 ?
NO

Would you mind telling me which call this test gave O=C(CCSc1ccccc1)N1CCN(c2ccccc2F)CC1 ?
NO

Answer briefly: the call reported for Oc1ccc(C2Nc3cccc4cccc(c34)N2)cc1 in this assay.
YES

Hi, do you know how N#Cc1cccc(NC(=O)C2CCCN(C(=O)c3ccc(Cl)cc3)C2)c1 (stereo unspecified) came out in this test?
YES

Recorded call for Cc1ccc(S(=O)(=O)CC(=O)NC(C)c2ccccc2)cc1 (stereo unspecified) ?
NO

Hey, what did the test say about O=C(O)c1ccc(/C=C2\SC(=S)N(NC(=O)c3ccc(Br)cc3)C2=O)cc1 ?
NO

Dear all, I need the recorded test outcome for Cc1cc2cc(CNC(=O)c3cccs3)ccc2[nH]1 , thank you.
NO

Query: recorded result category for N#Cc1cccc(NC(=O)CCC2CCCC2)c1 in this test
NO

Could you check what this test reported for COc1cccc(C2Nc3cccc4cccc(c34)N2)c1 ?
YES
